# assayed-system: C5aR1 (Homo sapiens, UniProt P21730)
# Sequence (P21730 1-350): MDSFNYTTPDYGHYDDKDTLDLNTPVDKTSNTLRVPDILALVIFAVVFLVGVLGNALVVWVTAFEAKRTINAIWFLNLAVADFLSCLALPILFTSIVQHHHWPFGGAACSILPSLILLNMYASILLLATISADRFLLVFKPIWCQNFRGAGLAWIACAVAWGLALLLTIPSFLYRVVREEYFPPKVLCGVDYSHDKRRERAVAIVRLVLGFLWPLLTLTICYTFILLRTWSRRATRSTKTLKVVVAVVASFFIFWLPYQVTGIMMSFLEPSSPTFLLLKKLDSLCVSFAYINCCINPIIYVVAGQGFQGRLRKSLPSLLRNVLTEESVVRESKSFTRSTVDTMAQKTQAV
# procedure-details: β-arrestin2 recruitment, two-subunit luciferase reporter
# Type: cell-based
# Design: expressed in transfected cells
# setup-conditions: 100 nM C5a, Table 9; read-out: IC50 for β-arrestin signaling
pIC50: −log10 of the molar value.

- chem-smiles: "Cc1ccc(NC(=O)[C@H]2CCCN(C(=O)c3c(C)cccc3F)[C@H]2c2ccc(NC3CCCC3)cc2)cc1C(F)(F)F"
  assayed-system: "C5aR1 (Homo sapiens, UniProt P21730)"
  pIC50: 8.49
